Cited source: the supplement of paper PMC10266784

Items are presented alongside their recorded SGCB cell-surface expression functional score (log10).
B1: library; numbered along this chain (parent)
chain: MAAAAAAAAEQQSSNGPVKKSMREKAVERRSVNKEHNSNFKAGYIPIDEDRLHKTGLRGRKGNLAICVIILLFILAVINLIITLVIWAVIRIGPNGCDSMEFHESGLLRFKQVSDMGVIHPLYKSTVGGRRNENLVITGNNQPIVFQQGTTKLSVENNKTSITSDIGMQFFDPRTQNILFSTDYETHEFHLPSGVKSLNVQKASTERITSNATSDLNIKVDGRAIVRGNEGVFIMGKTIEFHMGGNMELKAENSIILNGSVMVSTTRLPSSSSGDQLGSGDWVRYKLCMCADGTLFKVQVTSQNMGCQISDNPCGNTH

Variants of: B1
ASSAY_TEXT: SGCB cell-surface expression functional score (HA stain, bin4 vs bin1, normalised to synonymous) (log10 ratio); higher = more cell-surface SGCB (functional)
Please respond with just the number, no unit label.

Below are worked cases with known answers.
mutation_key=V89R reading=-0.63
mutation_key=E206I reading=-0.47

Attention now shifts to the item below.
IN: Let me know recorded SGCB cell-surface expression functional score (log10) for G139W , thanks.
OUT: -0.74
